# tested-system: T1, human MICA008 on cells (human)
# T1 construct: whole, on cells; also called CHO-MICA008; C1R-MICA008
# test-summary: flow cytometry, CHO-MICA008 cells
property-name: EC50 (µg/mL)
Please state the figure in µg/mL; there is no need to write the unit.

Worked set:
13A9 (antibody, human IgG1, kappa, V domains shown) VH: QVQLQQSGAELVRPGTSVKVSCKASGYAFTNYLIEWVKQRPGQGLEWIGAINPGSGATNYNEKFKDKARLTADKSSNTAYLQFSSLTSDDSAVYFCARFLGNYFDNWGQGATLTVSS VL: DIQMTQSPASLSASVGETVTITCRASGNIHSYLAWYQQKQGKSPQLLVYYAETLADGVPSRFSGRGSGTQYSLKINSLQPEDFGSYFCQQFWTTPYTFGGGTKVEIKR = 2.08
6E1.1.12 (antibody, human IgG1, kappa, V domains shown) VH: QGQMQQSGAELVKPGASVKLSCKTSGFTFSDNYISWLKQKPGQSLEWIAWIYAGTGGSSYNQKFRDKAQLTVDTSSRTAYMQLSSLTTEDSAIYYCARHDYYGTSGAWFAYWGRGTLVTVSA VL: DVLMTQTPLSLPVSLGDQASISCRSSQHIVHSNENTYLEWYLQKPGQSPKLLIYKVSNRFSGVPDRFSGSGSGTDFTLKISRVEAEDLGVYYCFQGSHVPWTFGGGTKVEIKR = 0.15
3F9 (antibody, human IgG1, kappa, V domains shown, also called benchmark 3F9) VH: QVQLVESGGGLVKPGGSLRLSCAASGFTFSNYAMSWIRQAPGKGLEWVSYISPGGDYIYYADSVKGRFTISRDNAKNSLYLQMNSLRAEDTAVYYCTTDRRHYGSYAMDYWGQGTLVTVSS VL: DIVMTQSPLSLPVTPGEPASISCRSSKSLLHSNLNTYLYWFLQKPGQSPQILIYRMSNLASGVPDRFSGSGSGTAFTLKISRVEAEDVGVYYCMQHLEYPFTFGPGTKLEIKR = 0.119
#39 (antibody, human IgG1, V domains shown, also called PL114G03; Hit ID 39) VH: QVQLQQSGAELVRPGTSVKVSCKASGYAFTDYLIEWVKQRPGQGLEWIGGINPGSGSTNYNEKFKGKAILTADKSSSTAYMQLSSLTSDDSAVYFCARLDGNYVGYWGQGTTLTVSS VL: DILLTQSPASLSASVGETVTITCRASGNIHNYLAWYQQKQGKSPQLLVYHAKTLADGVPSRFSGSGSGTQYSLKINSLQPEDFGSYYCQHFWSTPWTFGGGTKLEIK = 1.31
#36 (antibody, human IgG1, V domains shown, also called PL116H11; Hit ID 36) VH: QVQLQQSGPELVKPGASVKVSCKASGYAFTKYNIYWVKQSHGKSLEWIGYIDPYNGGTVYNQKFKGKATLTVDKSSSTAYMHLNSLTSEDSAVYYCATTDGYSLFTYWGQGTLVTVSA VL: DIQMTQTTSSLSASLGDRVTISCRASQDISNYLNWYQQKPDGTVKLLIYYTSRLHSGVPSRFSGSGSGTDYSLTISNLEQEDIATYFCQQGNTLPFTFGSGTKLEIK = 0.063
1D5 (antibody, human IgG1, kappa, V domains shown, also called ID5) VH: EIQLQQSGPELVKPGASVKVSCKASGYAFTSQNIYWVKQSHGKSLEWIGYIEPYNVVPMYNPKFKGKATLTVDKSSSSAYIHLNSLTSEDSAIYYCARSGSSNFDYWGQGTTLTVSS VL: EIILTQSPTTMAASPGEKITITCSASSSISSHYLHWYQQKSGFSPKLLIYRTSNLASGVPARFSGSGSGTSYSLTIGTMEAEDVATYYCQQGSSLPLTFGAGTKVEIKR = 0.028
#38 (antibody, human IgG1, V domains shown, also called PL114H02; Hit ID 38) VH: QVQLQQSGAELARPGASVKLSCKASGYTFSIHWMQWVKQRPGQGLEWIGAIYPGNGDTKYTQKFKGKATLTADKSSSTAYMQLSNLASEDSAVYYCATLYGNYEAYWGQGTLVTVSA VL: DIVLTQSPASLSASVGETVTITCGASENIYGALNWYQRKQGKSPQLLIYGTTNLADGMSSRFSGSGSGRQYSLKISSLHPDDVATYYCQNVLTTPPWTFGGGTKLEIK = 1.1
#40 (antibody, human IgG1, V domains shown, also called PL113C03; Hit ID 40) VH: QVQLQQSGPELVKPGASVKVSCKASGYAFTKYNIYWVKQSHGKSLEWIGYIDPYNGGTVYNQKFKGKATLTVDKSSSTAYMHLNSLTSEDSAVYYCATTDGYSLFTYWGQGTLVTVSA VL: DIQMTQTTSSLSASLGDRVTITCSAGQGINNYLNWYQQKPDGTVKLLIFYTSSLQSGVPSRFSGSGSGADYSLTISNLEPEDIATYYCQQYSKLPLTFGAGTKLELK = 0.085

EC50 measured on #31 (antibody, human IgG1, V domains shown, also called PL116D11; Hit ID 31) VH: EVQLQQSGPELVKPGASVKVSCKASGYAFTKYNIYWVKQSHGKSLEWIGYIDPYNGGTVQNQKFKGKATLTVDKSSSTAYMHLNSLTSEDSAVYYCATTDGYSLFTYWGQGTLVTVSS VL: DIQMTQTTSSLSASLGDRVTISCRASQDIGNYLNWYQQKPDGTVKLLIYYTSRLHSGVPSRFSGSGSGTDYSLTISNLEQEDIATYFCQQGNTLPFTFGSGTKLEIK = 0.051

EC50 measured on #34 (antibody, human IgG1, V domains shown, also called PL111H04; Hit ID 34) VH: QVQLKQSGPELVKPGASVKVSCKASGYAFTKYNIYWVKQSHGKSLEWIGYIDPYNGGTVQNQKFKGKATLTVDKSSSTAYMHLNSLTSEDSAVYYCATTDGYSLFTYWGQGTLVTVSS VL: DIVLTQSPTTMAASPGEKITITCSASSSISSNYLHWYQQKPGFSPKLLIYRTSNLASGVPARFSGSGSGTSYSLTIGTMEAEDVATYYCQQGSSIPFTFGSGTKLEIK = 0.048
